All values here come from PubChem BioAssay (NCI).

system: NCI-H460 lung; assay: NCI-60 one-dose screen, 48 h (100 = growth as untreated, 0 = no growth, -100 = all killed); conditions: 10 µM unless noted
Compounds without any hit were thinned out: in the full panel of roughly 83,000, 20% have a hit.
Entries and their growth
Endpoint Name: growth (%)

> print(dat)
                              smiles.record   study.target  assay.result
1  COc1cc2c(cc1OCCCCCn1c(-c3ccc(OCc4ccccc4)cc3)nc3cc(N4CCOCC4)ccc31)N=C[C@@H]1CCCN1C2=O  NCI-H460 lung         -3.28
2  CCOC(=O)c1c2c(c(C)n1Cc1ccc(OC)cc1)-c1nc(N)ncc1CC2  NCI-H460 lung           111
3  CCOC(=O)c1c2c(c(C)n1Cc1ccccc1)-c1nc(N)ncc1CC2  NCI-H460 lung           102
4         O=C(CN1CCCCC1)Sc1nnc2sc3ccccc3n12  NCI-H460 lung           103
5  COC(=O)[C@]12CC[C@@H](C)[C@H](C)[C@@H]1C1=CC[C@@H]3[C@@]4(C)C=C(O)C(=O)[C@@]5(C)COC(=C54)C[C@@]3(C)[C@]1(C)CC2  NCI-H460 lung         -66.2
6  ClC1=C(Cl)C(=C2C(Cl)=C(Cl)C(Cl)=C2Cl)C(Cl)=C1Cl  NCI-H460 lung           103
7  COc1ccc2nc(NC(=O)c3cc(-c4ccc(F)cc4)n4nc(-c5ccccc5)cc4n3)sc2c1  NCI-H460 lung          79.2
8        CN(C(=O)c1ccccc1)N(C)C(=O)c1ccccc1  NCI-H460 lung           109
9  COc1ccc(-c2cncn2-c2ccc(-c3nc4cc(OC)c(OC)c(OC)c4s3)cc2)cc1N  NCI-H460 lung          51.4
